Each entry below lists one item and its recorded Ki value.
Target: T1, rat NK1 receptor (rat, UniProt P14600)
T1 chain: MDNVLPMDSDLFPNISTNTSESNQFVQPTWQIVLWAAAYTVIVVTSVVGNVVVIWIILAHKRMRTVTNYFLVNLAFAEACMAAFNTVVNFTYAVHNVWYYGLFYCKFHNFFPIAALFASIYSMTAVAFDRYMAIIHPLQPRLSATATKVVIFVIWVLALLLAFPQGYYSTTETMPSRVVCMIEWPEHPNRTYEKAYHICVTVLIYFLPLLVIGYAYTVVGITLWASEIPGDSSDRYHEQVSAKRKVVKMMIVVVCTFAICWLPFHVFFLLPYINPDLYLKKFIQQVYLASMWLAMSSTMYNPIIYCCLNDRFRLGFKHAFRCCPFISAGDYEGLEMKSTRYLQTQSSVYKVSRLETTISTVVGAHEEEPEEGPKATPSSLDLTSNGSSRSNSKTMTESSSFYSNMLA
Assay: competition
Non-standard residues stand in square brackets, D forms with d. No end group written: not given here. *: point of attachment. NH(3,5-(CF3)2-benzyl) = FC(F)(F)c1cc(CN*)cc(C(F)(F)F)c1; Phe(4-F) = N[C@@H](Cc1ccc(F)cc1)C(=O)O; NMeF = CN[C@@H](Cc1ccccc1)C(=O)O

[
  {
    "Binder": "Y[dA]GFPLW-{NH(3,5-(CF3)2-benzyl)} [TY012]",
    "Ki": "33 nM"
  },
  {
    "Binder": "XAGFPLW (Dmt1, D-Ala2, NMePhe4; C-terminal NH-Bn(3',5'-(CF3)2)) [AKG115]",
    "Ki": "48.3 nM"
  },
  {
    "Binder": "XAGFPLW (Dmt1, D-NMeAla2; C-terminal NH-Bn(3',5'-(CF3)2)) [AKG181]",
    "Ki": "26.4 nM"
  },
  {
    "Binder": "XAGFPLW (Dmt1, D-Ala2, Phe(4-Cl)4; C-terminal NH-Bn(3',5'-(CF3)2)) [AKG191]",
    "Ki": "26.5 nM"
  },
  {
    "Binder": "XAGFPLW (Dmt1, D-Ala2, NMeGly3; C-terminal NH-Bn(3',5'-(CF3)2)) [AKG180]",
    "Ki": "17.1 nM"
  },
  {
    "Binder": "XAGFPLW (Dmt1, D-NMeAla2, NMeGly3, NMePhe4; C-terminal NH-Bn(3',5'-(CF3)2)) [AKG185]",
    "Ki": "74.8 nM"
  },
  {
    "Binder": "XAGFPLW (Dmt1, D-Ala2, Phe(4-F)4; C-terminal NH-Bn(3',5'-(CF3)2)) [AKG127]",
    "Ki": "29.4 nM"
  },
  {
    "Binder": "Y[dA]G[NMeF]PLW-{NH(3,5-(CF3)2-benzyl)} [AKG117]",
    "Ki": "61.1 nM"
  },
  {
    "Binder": "XAGFPLW (Dmt1, D-NMeAla2, NMeGly3; C-terminal NH-Bn(3',5'-(CF3)2)) [AKG183]",
    "Ki": "17.6 nM"
  },
  {
    "Binder": "XAGFPLW (Dmt1, D-Ala2, NMePhe(4-F)4; C-terminal NH-Bn(3',5'-(CF3)2)) [AKG128]",
    "Ki": "33.8 nM"
  },
  {
    "Binder": "Y[dA]G[Phe(4-F)]PLW-{NH(3,5-(CF3)2-benzyl)} [AKG190]",
    "Ki": "34.4 nM"
  },
  {
    "Binder": "XAGFPLW (Dmt1, D-Ala2, NMeGly3, NMePhe4; C-terminal NH-Bn(3',5'-(CF3)2)) [AKG182]",
    "Ki": "110 nM"
  },
  {
    "Binder": "XAGFPLW (Dmt1, D-Ala2; C-terminal NH-Bn(3',5'-(CF3)2)) [AKG116]",
    "Ki": "26.9 nM"
  },
  {
    "Binder": "XAGFPLW (Dmt1, D-NMeAla2, NMePhe4; C-terminal NH-Bn(3',5'-(CF3)2)) [AKG184]",
    "Ki": "115 nM"
  }
]
